tested on: Staphylococcus aureus; experiment: Antibacterial activity against Staphylococcus aureus after 24 hrs by two fold dilution method; type: functional
label 1 if MIC is below 4 µg/mL. label 0 if not; exact matches included in label 0.

>>> print(df.to_string())
                                   molecule    label
0  O=[N+]([O-])c1ccc(N2C(O)CC(c3ccccc3)N2C(c2ccc3c(c2)OCO3)N2CCOCC2)c([N+](=O)[O-])c1 (stereo unspecified)  label 0
1  O=[N+]([O-])c1ccc(N2C(O)CC(c3ccccc3)N2C(c2ccccn2)N2CCOCC2)c([N+](=O)[O-])c1 (stereo unspecified)  label 0
2  O=[N+]([O-])c1ccc(C(N2CCOCC2)N2C(c3ccccc3)CC(O)N2c2ccc([N+](=O)[O-])cc2[N+](=O)[O-])cc1 (stereo unspecified)  label 1
3  O=[N+]([O-])c1ccc(N2C(O)CC(c3ccccc3)N2C(c2ccco2)N2CCOCC2)c([N+](=O)[O-])c1 (stereo unspecified)  label 0
4  O=C(O)c1cn(C2CC2)c2cc(N3CCNCC3)c(F)cc2c1=O  label 1
5  CC(C)=CCC/C(C)=C\C(N1CCOCC1)N1C(c2ccccc2)CC(O)N1c1ccc([N+](=O)[O-])cc1[N+](=O)[O-] (stereo unspecified)  label 0
6  O=[N+]([O-])c1ccc(N2C(O)CC(c3ccccc3)N2C(c2ccc(Cl)cc2)N2CCOCC2)c([N+](=O)[O-])c1 (stereo unspecified)  label 0
7  O=[N+]([O-])c1ccc(N2C(O)CC(c3ccccc3)N2C(c2cncs2)N2CCOCC2)c([N+](=O)[O-])c1 (stereo unspecified)  label 0
8  CN(C)c1ccc(C(N2CCOCC2)N2C(c3ccccc3)CC(O)N2c2ccc([N+](=O)[O-])cc2[N+](=O)[O-])cc1 (stereo unspecified)  label 0

Now turn to the next molecule.
Exercise: Is it true that MIC reported for O=[N+]([O-])c1ccc(N2C(O)CC(c3ccccc3)N2C(c2c[nH]c3ccccc23)N2CCOCC2)c([N+](=O)[O-])c1 (stereo unspecified) is less than 4 µg/mL?
Solution: label 1

====

test: Cytotoxicity against human MCF7 cells after 48 hrs by MTT assay; format: functional; settings: MCF7, 48 h
Metric Name: GI50 (µM)
Hi! Could you send only the number? It should be in µM, unit omitted.

Below, each entry is followed by its recorded GI50 result.
In [3]: df
Out[3]:
                                   molecule  observed_measurement
0  O=[N+]([O-])c1ccc(N2C(O)CC(c3ccccc3)N2C(c2ccccn2)N2CCOCC2)c([N+](=O)[O-])c1 (stereo not drawn)                  18.6
1  O=[N+]([O-])c1ccc(N2C(O)CC(c3ccccc3)N2C(c2ccc(Cl)cc2)N2CCOCC2)c([N+](=O)[O-])c1 (stereo not drawn)                  46.1

Proceeding to the next molecule to report its GI50.
Exercise: Any idea what its GI50 is? The molecule is O=[N+]([O-])c1ccc(N2C(O)CC(c3ccccc3)N2C(c2ccc3c(c2)OCO3)N2CCOCC2)c([N+](=O)[O-])c1 (stereo not drawn)
Solution: 12.9

====

test: Cytotoxicity against human HepG2 cells after 48 hrs by MTT assay; assay type: functional; conditions: HepG2, 48 h
The entries below are paired with their reported LC50.

>>> df
                                   molecule  metric_name  observed_measurement
0  O=[N+]([O-])c1ccc(N2C(O)CC(c3ccccc3)N2C(c2ccc(Cl)cc2)N2CCOCC2)c([N+](=O)[O-])c1 (stereo not given)         LC50               42.8 µM
1  CN(C)c1ccc(C(N2CCOCC2)N2C(c3ccccc3)CC(O)N2c2ccc([N+](=O)[O-])cc2[N+](=O)[O-])cc1 (stereo not given)         LC50              > 100 µM
2  O=[N+]([O-])c1ccc(N2C(O)CC(c3ccccc3)N2C(c2ccccn2)N2CCOCC2)c([N+](=O)[O-])c1 (stereo not given)         LC50               67.5 µM

Exercise: Please look up its LC50: O=[N+]([O-])c1ccc(N2C(O)CC(c3ccccc3)N2C(c2c[nH]c3ccccc23)N2CCOCC2)c([N+](=O)[O-])c1 (stereo not given)
Solution: 54.8 µM

Exercise: Item under review: COc1ccc(C(N2CCOCC2)N2C(c3ccccc3)CC(O)N2c2ccc([N+](=O)[O-])cc2[N+](=O)[O-])cc1 (stereo not given) . Reported LC50?
Solution: > 100 µM
